Target: T1, human RXFP1 (human, UniProt Q9HBX9 1-757)
T1 sequence (looked up): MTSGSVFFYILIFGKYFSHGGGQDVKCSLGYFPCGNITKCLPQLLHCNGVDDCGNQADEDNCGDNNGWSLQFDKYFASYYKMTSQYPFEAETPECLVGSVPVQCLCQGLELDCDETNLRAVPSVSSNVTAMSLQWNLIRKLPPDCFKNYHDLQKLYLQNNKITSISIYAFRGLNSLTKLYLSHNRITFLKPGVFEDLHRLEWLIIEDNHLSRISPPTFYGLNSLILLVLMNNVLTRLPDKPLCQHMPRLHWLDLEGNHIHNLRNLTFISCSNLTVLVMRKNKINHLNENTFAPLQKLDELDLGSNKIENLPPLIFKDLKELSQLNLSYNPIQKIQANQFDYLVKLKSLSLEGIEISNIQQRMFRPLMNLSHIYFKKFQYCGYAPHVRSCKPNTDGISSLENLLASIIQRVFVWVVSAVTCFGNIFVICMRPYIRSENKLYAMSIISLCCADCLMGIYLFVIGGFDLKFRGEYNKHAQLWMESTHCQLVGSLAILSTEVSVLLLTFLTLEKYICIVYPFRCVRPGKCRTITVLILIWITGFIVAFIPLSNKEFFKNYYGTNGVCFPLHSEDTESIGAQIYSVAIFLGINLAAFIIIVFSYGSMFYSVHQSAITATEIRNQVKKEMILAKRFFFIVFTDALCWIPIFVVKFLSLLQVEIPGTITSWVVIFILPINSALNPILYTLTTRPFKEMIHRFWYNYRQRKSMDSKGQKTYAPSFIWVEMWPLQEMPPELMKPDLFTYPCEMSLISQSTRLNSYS
Method summary: cell-based or functional assay
Numbered stars: 1 amine (or outer) side, 2 acyl side, 3 side chain; on linkers, the order of the positions; unused ones are H or OH. Square brackets hold non-standard residues; d marks the D form. Side chains are listed from the residue outwards. * marks the point of attachment. TTDS = 4-[3-[2-[2-(3-aminopropoxy)ethoxy]ethoxy]propylamino]-4-oxo-butanoyl; γGlu = O=C(O)[C@H](CCC(=O)[*:2])N[*:1]; Palmitoyl = CCCCCCCCCCCCCCCC(=O)*; αMeK = C[C@](N)(CCCCN)C(=O)O; Aib = CC(C)(N)C(=O)O
Readout type: EMax, OVCAR 5 cells (cAMP) (%)

Binder: Ac-LEGREKVRAK(Ac)I[Aib][Aib]EGK([TTDS-TTDS-TTDS-γGlu-γGlu-γGlu-Palmitoyl])STWS[Aib]RKK(Ac)-NH2 [Relaxin peptide analogue of SEQ ID NO: 1]
Readout type: EMax, OVCAR 5 cells (cAMP)
Measured: 99
//
Binder: Ac-LEGREKVRAK(Ac)I[Aib][Aib]EGK([TTDS-TTDS-TTDS-γGlu-γGlu-γGlu-Palmitoyl])STFS[αMeK]RAK-NH2 [Relaxin peptide analogue of SEQ ID NO: 49]
Readout type: EMax, OVCAR 5 cells (cAMP)
Measured: 97

The reported measurements were obtained from patent US20240400638A1.
